# System: UACC-62
# PROTOCOL DESCRIPTION: NCI tumour cell line growth inhibition, 48 h
Calls of active or inactive are those of the source. No stated cut-off is given here; in the data, active = GI50 up to about 1.1 µM and inactive = higher.
Entries and their GI50 values follow.

These solved cases illustrate the format of a correct answer.
{"COMPOUND": "Cc1cc(NS(=O)(=O)c2ccc(NC(=O)c3cccc4c(NNc5ccc(S(=O)(=O)N=C(N)N)cc5)c5ccccc5nc34)cc2)no1", "GI50": "42.9 µM (inactive)"}
{"COMPOUND": "O=C(N/C(=C\\c1ccccc1[N+](=O)[O-])c1nc2ccccc2[nH]1)c1ccccc1", "GI50": "62.4 µM (inactive)"}
{"COMPOUND": "CCCCCCCCCCCCCCCCCCOCC(O)COP(=O)(O)OCC1OC(n2ccc(N)nc2=O)C(O)C1O (stereo not given)", "GI50": "23.9 µM (inactive)"}
{"COMPOUND": "Cc1nc(Cl)c(C)c(Cl)n1", "GI50": "> 80.4 µM (inactive)"}

query: Any idea what its GI50 is? The compound is CCc1c(-c2ccc(OC)cc2)oc(OC)c(C)c1=O
result: 64 µM (inactive)

query: Form field: reported GI50 of CC1C(=O)C(C)C(c2ccco2)N(N=O)C1c1ccco1 (stereo not given)
result: > 100 µM (inactive)

query: Request the reported GI50 associated with COc1ccc(S(=O)(=O)N/N=C\c2cc([N+](=O)[O-])cc(I)c2O)c(OC)c1OC
result: 21.9 µM (inactive)

query: Give its GI50 value. Item: Cc1cc(Cl)ccc1NC(=O)CC1SC(N)=NC1=O (stereo not given)
result: > 100 µM (inactive)

query: What does the record list as GI50 for CCOC(=O)CCN1C(=O)c2c(NC(=O)C(=O)O)cccc2S1(=O)=O ?
result: > 100 µM (inactive)

query: What does the record list as GI50 for CC1(C=O)C(=O)CCC2(C)C3CC(=O)OC3CCC12 (stereo not given) ?
result: > 100 µM (inactive)
